Just for reference, patent US8840866B2 is where these values come from.

Please go through the items and note down their Biodistribution: Liver.
Test: Organ distribution in normal ICR mice after iv injection of radiolabeled tracer
Format: in vivo
Conditions: [125I]-labeled tracer, 2 hr

Incoming: Using the record for CNc1ccc(/C=C/c2cnc(OCCOCCOCCF)c(I)c2)cc1 [[^125I]13b] , report its Biodistribution: Liver.
Outgoing: 6.25 ± 1.79 % dose/g

Incoming: Using the record for CN(C)c1ccc(/C=C/c2cnc(OCCOCCOCCF)c(I)c2)cc1 [[^125I]13a] , report its Biodistribution: Liver.
Outgoing: 5.62 ± 1.31 % dose/g

Incoming: Using the record for CNc1ccc(/C=C/c2cnc(OCCO)c(I)c2)cc1 [[^125I]16b] , report its Biodistribution: Liver.
Outgoing: 3.41 ± 0.20 % dose/g

Incoming: Using the record for CN(C)c1ccc(/C=C/c2cnc(OCCO)c(I)c2)cc1 [[^125I]16a] , report its Biodistribution: Liver.
Outgoing: 4.87 ± 0.46 % dose/g
